type: in vivo; conditions: human, plasma, oral, 5 mg, t½, Mean (%CV), axitinib alone 5 mg b.i.d., steady state, gemcitabine/cisplatin cohort
Observation Type: half-life (h)

CNC(=O)c1ccccc1Sc1ccc2c(/C=C/c3ccccn3)n[nH]c2c1 [Axitinib, axitinib]: 2.68

###

format: in vivo; conditions: human, plasma, oral, t½, Mean (%CV), axitinib + paclitaxel/carboplatin, cycle 1 day 1
Observation Type: half-life

CNC(=O)c1ccccc1Sc1ccc2c(/C=C/c3ccccn3)n[nH]c2c1: 2.7 h

###

experiment: Plasma pharmacokinetics of chemotherapy in absence or presence of axitinib; assay type: in vivo, human; settings: human, plasma, intravenous, CL, Mean (%CV), gemcitabine (+cisplatin) + axitinib, cycle 1 day 1, n=17
Observation Type: clearance

Nc1ccn([C@@H]2O[C@H](CO)[C@@H](O)C2(F)F)c(=O)n1: 3620 mL/min

###

assay: Plasma pharmacokinetics of chemotherapy in absence or presence of axitinib; assay type: in vivo, human; conditions: human, plasma, intravenous, CL, Mean (%CV), paclitaxel (+carboplatin) + axitinib, cycle 1 day 1, n=12
Observation Type: clearance (mL/min)

CC(=O)O[C@H]1C(=O)[C@@]2(C)[C@H]([C@H](OC(=O)c3ccccc3)[C@]3(O)C[C@H](OC(=O)[C@H](O)[C@@H](NC(=O)c4ccccc4)c4ccccc4)C(C)=C1C3(C)C)[C@]1(OC(C)=O)CO[C@@H]1C[C@@H]2O: 303

###

format: in vivo; settings: human, plasma, oral, 5 mg, Vz/F, Mean (%CV), axitinib alone 5 mg b.i.d., steady state, gemcitabine/cisplatin cohort
Observation Type: Vd/F

CNC(=O)c1ccccc1Sc1ccc2c(/C=C/c3ccccn3)n[nH]c2c1: 157 L

###

format: in vivo; conditions: human, plasma, oral, 5 mg, Cmax, Mean (%CV), axitinib alone 5 mg b.i.d., steady state, gemcitabine/cisplatin cohort, n=20
Observation Type: Cmax (ng/mL)

CNC(=O)c1ccccc1Sc1ccc2c(/C=C/c3ccccn3)n[nH]c2c1: 41

###

format: in vivo; conditions: human, plasma, oral, 5 mg, AUC0-24, Mean (%CV), axitinib alone 5 mg b.i.d., steady state, gemcitabine/cisplatin cohort
Observation Type: AUC(0-t) (ng·h/mL)

CNC(=O)c1ccccc1Sc1ccc2c(/C=C/c3ccccn3)n[nH]c2c1: 416

###

assay type: in vivo; conditions: human, plasma, oral, 5 mg b.i.d., AUC0-24, Mean (%CV), axitinib 5 mg b.i.d. + gemcitabine/cisplatin, cycle 1 day 1
Observation Type: AUC(0-t) (ng·h/mL)

CNC(=O)c1ccccc1Sc1ccc2c(/C=C/c3ccccn3)n[nH]c2c1: 444

###

type: in vivo; conditions: human, plasma, oral, 5 mg b.i.d., Vz/F, Mean (%CV), axitinib 5 mg b.i.d. + gemcitabine/cisplatin, cycle 1 day 1
Observation Type: Vd/F (L)

CNC(=O)c1ccccc1Sc1ccc2c(/C=C/c3ccccn3)n[nH]c2c1: 168

###

assay type: in vivo; settings: human, plasma, oral, 5 mg b.i.d., Cmax, Mean (%CV), axitinib alone, steady state, cycle 1 day –1, cohorts 1–3 pooled, dose-normalised to 5 mg b.i.d., n=12
Observation Type: Cmax (ng/mL)

CNC(=O)c1ccccc1Sc1ccc2c(/C=C/c3ccccn3)n[nH]c2c1: 39

###

experiment: Plasma pharmacokinetics of chemotherapy in absence or presence of axitinib; format: in vivo, human; settings: human, plasma, intravenous, Cmax, Mean (%CV), paclitaxel (+carboplatin) + axitinib, cycle 1 day 1, plasma, n=12
Observation Type: Cmax (ng/mL)

CC(=O)O[C@H]1C(=O)[C@@]2(C)[C@H]([C@H](OC(=O)c3ccccc3)[C@]3(O)C[C@H](OC(=O)[C@H](O)[C@@H](NC(=O)c4ccccc4)c4ccccc4)C(C)=C1C3(C)C)[C@]1(OC(C)=O)CO[C@@H]1C[C@@H]2O: 7180

###

experiment: Plasma pharmacokinetics of chemotherapy in absence or presence of axitinib; assay type: in vivo, human; settings: human, plasma, intravenous, CL, Mean (%CV), gemcitabine (+cisplatin) without axitinib, cycle 2, n=17
Observation Type: clearance (mL/min)

Nc1ccn([C@@H]2O[C@H](CO)[C@@H](O)C2(F)F)c(=O)n1 [Gemcitabine, 2′,2′-difluorodeoxycytidine]: 3730

###

assay: Plasma pharmacokinetics of chemotherapy in absence or presence of axitinib; type: in vivo, human; details: human, plasma, intravenous, t½, Mean (%CV), paclitaxel (+carboplatin) + axitinib, cycle 1 day 1, n=12
Observation Type: half-life

CC(=O)O[C@H]1C(=O)[C@@]2(C)[C@H]([C@H](OC(=O)c3ccccc3)[C@]3(O)C[C@H](OC(=O)[C@H](O)[C@@H](NC(=O)c4ccccc4)c4ccccc4)C(C)=C1C3(C)C)[C@]1(OC(C)=O)CO[C@@H]1C[C@@H]2O [Paclitaxel, paclitaxel]: 8.64 h

###

test: Plasma pharmacokinetics of chemotherapy in absence or presence of axitinib; format: in vivo, human; conditions: human, plasma, intravenous
Observation Type: AUC(0-inf) (µg·h/mL)

Nc1ccn([C@@H]2O[C@H](CO)[C@@H](O)C2(F)F)c(=O)n1 [Gemcitabine, 2′,2′-difluorodeoxycytidine]: 11.7

###

test: Plasma pharmacokinetics of chemotherapy in absence or presence of axitinib; type: in vivo, human; conditions: human, plasma, intravenous, Vz, Mean (%CV), paclitaxel (+carboplatin) + axitinib, cycle 1 day 1, n=12
Observation Type: Vd

CC(=O)O[C@H]1C(=O)[C@@]2(C)[C@H]([C@H](OC(=O)c3ccccc3)[C@]3(O)C[C@H](OC(=O)[C@H](O)[C@@H](NC(=O)c4ccccc4)c4ccccc4)C(C)=C1C3(C)C)[C@]1(OC(C)=O)CO[C@@H]1C[C@@H]2O [Paclitaxel, paclitaxel]: 229 L

###

assay type: in vivo; conditions: human, plasma, oral, 5 mg b.i.d., Cmax, Mean (%CV), axitinib 5 mg b.i.d. + gemcitabine/cisplatin, cycle 1 day 1, n=20
Observation Type: Cmax

CNC(=O)c1ccccc1Sc1ccc2c(/C=C/c3ccccn3)n[nH]c2c1: 41.7 ng/mL

###

experiment: Plasma pharmacokinetics of chemotherapy in absence or presence of axitinib; type: in vivo, human; settings: human, plasma, intravenous, Vz, Mean (%CV), gemcitabine (+cisplatin) without axitinib, cycle 2, n=17
Observation Type: Vd (L)

Nc1ccn([C@@H]2O[C@H](CO)[C@@H](O)C2(F)F)c(=O)n1: 91.5

###

format: in vivo; conditions: human, plasma, oral, 5 mg b.i.d., Vz/F, Mean (%CV), axitinib + paclitaxel/carboplatin, cycle 1 day 1, dose-normalised to 5 mg b.i.d.
Observation Type: Vd/F (L)

CNC(=O)c1ccccc1Sc1ccc2c(/C=C/c3ccccn3)n[nH]c2c1 [Axitinib, axitinib]: 133

###

assay: Plasma pharmacokinetics of chemotherapy in absence or presence of axitinib; assay type: in vivo, human; conditions: human, plasma, intravenous, t½, Mean (%CV), paclitaxel (+carboplatin) without axitinib, cycle 2 day 1, n=12
Observation Type: half-life (h)

CC(=O)O[C@H]1C(=O)[C@@]2(C)[C@H]([C@H](OC(=O)c3ccccc3)[C@]3(O)C[C@H](OC(=O)[C@H](O)[C@@H](NC(=O)c4ccccc4)c4ccccc4)C(C)=C1C3(C)C)[C@]1(OC(C)=O)CO[C@@H]1C[C@@H]2O: 8.36
